src = ChEMBL document CHEMBL1148748

- assay_system: 5-hydroxytryptamine receptor 4 (Homo sapiens, UniProt Q13639)
- Sequence (Q13639 whole entry, the tested form may be a part): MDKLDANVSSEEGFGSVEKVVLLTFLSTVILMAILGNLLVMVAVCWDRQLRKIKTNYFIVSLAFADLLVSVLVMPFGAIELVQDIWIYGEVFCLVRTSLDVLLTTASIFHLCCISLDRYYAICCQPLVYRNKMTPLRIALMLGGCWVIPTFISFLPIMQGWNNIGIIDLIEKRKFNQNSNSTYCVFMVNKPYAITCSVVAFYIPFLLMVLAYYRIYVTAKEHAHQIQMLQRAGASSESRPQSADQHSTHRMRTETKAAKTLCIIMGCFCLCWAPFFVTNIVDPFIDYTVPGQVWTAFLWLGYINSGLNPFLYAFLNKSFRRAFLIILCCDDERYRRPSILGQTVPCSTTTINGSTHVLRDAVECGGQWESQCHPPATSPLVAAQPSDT
- assay_details: Activity at 5HT4 receptor fused with RLuc and YFP fusion proteins expressed in CHO cells by BRET dimerization assay relative to control
- Format: functional, cell-based
- Set-up: concentration or dose not given beside the values
assay_readout: Activity

smiles_text=COc1cc(N)c(Cl)cc1C(=O)OCCN1CCC(CNC(=O)CCCN(CCCc2cccc(CCCN(CCCC(=O)NCC3CCN(CCOC(=O)c4cc(Cl)c(N)cc4OC)CC3)C(=O)OC(C)(C)C)c2)C(=O)OC(C)(C)C)CC1 assay_readout=Activity reported_value=108%
smiles_text=COc1cc(N)c(Cl)cc1C(=O)OCCN1CCC(CNC(=O)CCCN(CC#Cc2ccc(C#CCN(CCCC(=O)NCC3CCN(CCOC(=O)c4cc(Cl)c(N)cc4OC)CC3)C(=O)OC(C)(C)C)cc2)C(=O)OC(C)(C)C)CC1 assay_readout=Activity reported_value=115%
smiles_text=COc1cc(N)c(Cl)cc1C(=O)OCCN1CCC(NC(=O)CCCCCNC(=O)C2CCN(CCOC(=O)c3cc(Cl)c(N)cc3OC)CC2)CC1 assay_readout=Activity reported_value=108%
smiles_text=COc1cc(N)c(Cl)cc1C(=O)OCCN1CCC(CNC(=O)CCCN(CC#Cc2cccc(C#CCN(CCCC(=O)NCC3CCN(CCOC(=O)c4cc(Cl)c(N)cc4OC)CC3)C(=O)OC(C)(C)C)c2)C(=O)OC(C)(C)C)CC1 assay_readout=Activity reported_value=108%
smiles_text=COc1cc(N)c(Cl)cc1C(=O)OCCN1CCCCC1 assay_readout=Activity reported_value=101%
smiles_text=COc1cc(N)c(Cl)cc1C(=O)OCCN1CCC(NC(=O)CCCN(CC#Cc2ccc(C#CCN(CCCC(=O)NC3CCN(CCOC(=O)c4cc(Cl)c(N)cc4OC)CC3)C(=O)OC(C)(C)C)cc2)C(=O)OC(C)(C)C)CC1 assay_readout=Activity reported_value=106%
